Test system: OVCAR-3 ovarian
Experiment: NCI tumour cell line growth inhibition, 48 h
Each entry below lists one item and its recorded TGI value.

{"compound": "C=CC(=O)N1CC[C@H](n2nc(C#Cc3cc(OC)cc(OC)c3)c3c(N)ncnc32)C1", "TGI": "> 100 µM"}
{"compound": "CC(=O)NNc1nc(C)c(C(=O)/C=C/c2ccc(Cl)c(Cl)c2)s1", "TGI": "> 100 µM"}
{"compound": "CN1CC2=C(NC(=S)NC2c2ccccc2Cl)/C(=C/c2ccccc2Cl)C1 (stereo not given)", "TGI": "> 100 µM"}
{"compound": "O=c1[nH]c2c(c(=O)[nH]1)C(c1ccc([N+](=O)[O-])cc1)c1c([nH]c(=O)[nH]c1=O)O2", "TGI": "> 100 µM"}
{"compound": "COc1ccc2nc3cccc([N+](=O)[O-])c3c(NC(C)CN(C)C)c2c1 (stereo not given)", "TGI": "10.4 µM"}
